targetUnderTest: T1, HLA-A*02:01 (human)
T1 construct: MHC class I monomer made peptide-receptive by UV cleavage of a UV-sensitive ligand; also called peptide-receptive MHC molecules
assayComment: UV-ligand exchange ELISA (anti-β2m), peptide exchange yield grade
outcomeMeasure: peptide exchange yield

INSERT INTO measurements (binder, readoutvalue) VALUES
  ('AMNGKSFSV [peptide AMNGKSFSV (SEQ ID NO: 98)]', '20 to 50%'),
  ('ALAGGITMV [peptide ALAGGITMV (SEQ ID NO: 170)]', '50 to 75%'),
  ('VLYEGVDEV [peptide VLYEGVDEV (SEQ ID NO: 120)]', '20 to 50%'),
  ('ALAELLHGA [peptide ALAELLHGA (SEQ ID NO: 45)]', '50 to 75%');
